B1: Protein S100-G, residues 1 to 79; numbered along this chain, P02633 (parent)
chain: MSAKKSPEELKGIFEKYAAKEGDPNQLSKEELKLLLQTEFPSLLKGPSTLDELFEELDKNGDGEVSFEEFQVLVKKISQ

Variants of: B1
ASSAY_METHOD_TEXT: abundance fitness (aPCA) (normalised: wild type 0, dead -1); higher = more abundant; growth selection in yeast, the domain comes from the species named
CONDITION_NOTES: Bos taurus
OBSERVATION_TYPE: abundance fitness
Field format: numeric only.

Answered cases to consult:
E9K : -0.061
P41N : -0.06

Next variant, abundance fitness to be filled in.
Ask: Entry "L44M" has what abundance fitness?
Result: -0.059
